# System: Calpain activity in SH-SY5Y cells
# measurement_protocol: SH-SY5Y + AMC fluorescence assay (Suc-LLVY-AMC substrate)
# Format: cell-based
# settings: read-out: SH-SY5Y + AMC IC50
value_type: IC50

Input: For Cn1cc(C(=O)NC(CCC(F)(F)F)C(=O)C(N)=O)c(-c2ccccc2)n1 (stereo not shown) , write its IC50.
Output: > 25 µM

Input: Identify IC50 associated with the compound NC(=O)C(=O)C(Cc1ccccc1)NC(=O)c1nsnc1-c1cccc(F)c1 (stereo not shown)
Output: > 25 µM

Input: Let me know recorded IC50 for Cn1cc(C(=O)NC(Cc2ccccc2)C(=O)C(N)=O)c(-c2ccc3c(c2)OCO3)n1 (stereo not shown) , thanks.
Output: < 10 µM

Input: Look up and report measured IC50 for this entry: Cc1nc(-c2ccccc2)c(C(=O)NC(Cc2ccccc2)C(=O)C(=O)NC2CC2)o1 (stereo not shown)
Output: < 10 µM
